- assay system: Cft1;Pfs2;Yth1;Fip1 (Saccharomyces cerevisiae;Saccharomyces …, UniProt Q06632;P42841;Q06102;P45976 1-1357;1-465;1-208;1-327, |||)
- Sequence (Q06632 whole entry, chain 1 of 4): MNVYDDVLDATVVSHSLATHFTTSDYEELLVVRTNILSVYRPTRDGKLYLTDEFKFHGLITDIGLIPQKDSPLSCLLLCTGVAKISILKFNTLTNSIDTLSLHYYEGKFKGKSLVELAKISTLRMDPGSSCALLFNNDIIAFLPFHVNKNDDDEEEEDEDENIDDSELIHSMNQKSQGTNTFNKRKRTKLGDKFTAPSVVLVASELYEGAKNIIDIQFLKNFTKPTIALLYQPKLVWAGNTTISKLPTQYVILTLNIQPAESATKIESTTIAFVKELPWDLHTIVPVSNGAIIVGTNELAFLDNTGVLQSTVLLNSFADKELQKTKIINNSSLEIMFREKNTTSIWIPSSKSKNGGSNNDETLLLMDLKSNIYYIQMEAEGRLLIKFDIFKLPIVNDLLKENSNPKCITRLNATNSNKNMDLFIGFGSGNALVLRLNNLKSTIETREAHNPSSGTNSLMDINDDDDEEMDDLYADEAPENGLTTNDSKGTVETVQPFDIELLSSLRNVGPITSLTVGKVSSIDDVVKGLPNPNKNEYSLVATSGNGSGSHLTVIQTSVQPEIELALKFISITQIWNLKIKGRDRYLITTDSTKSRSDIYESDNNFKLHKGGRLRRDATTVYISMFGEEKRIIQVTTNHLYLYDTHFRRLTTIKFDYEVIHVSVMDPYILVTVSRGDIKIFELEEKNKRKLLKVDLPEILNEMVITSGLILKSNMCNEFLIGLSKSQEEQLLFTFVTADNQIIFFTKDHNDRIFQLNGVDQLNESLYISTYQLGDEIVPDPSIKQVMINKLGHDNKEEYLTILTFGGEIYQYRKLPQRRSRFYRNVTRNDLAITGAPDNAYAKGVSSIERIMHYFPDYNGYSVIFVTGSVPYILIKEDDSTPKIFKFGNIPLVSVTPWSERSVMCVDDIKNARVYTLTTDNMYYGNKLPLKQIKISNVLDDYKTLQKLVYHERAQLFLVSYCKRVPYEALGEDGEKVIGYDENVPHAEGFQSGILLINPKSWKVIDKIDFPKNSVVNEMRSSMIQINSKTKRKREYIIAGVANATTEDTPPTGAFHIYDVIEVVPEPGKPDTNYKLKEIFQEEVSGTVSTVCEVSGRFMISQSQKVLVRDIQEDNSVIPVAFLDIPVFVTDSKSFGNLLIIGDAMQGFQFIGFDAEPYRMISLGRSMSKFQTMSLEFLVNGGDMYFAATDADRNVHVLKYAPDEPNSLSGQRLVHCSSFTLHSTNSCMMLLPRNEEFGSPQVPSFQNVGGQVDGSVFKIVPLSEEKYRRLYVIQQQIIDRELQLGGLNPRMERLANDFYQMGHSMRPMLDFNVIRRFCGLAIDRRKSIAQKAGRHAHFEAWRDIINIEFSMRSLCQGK
- Sequence (P42841 whole entry, chain 2 of 4): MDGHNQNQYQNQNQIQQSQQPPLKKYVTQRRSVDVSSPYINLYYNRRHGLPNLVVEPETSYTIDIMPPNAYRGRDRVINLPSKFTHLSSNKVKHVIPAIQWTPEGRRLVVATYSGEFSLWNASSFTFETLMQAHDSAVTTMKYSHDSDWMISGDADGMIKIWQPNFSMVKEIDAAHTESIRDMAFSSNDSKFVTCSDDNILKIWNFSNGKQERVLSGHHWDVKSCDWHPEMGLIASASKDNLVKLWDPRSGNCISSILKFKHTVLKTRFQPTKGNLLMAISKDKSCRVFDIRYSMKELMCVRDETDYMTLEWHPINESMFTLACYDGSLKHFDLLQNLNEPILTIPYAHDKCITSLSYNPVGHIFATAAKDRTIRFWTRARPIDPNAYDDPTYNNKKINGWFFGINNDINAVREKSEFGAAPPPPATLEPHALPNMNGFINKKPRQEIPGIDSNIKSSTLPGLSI
- Sequence (Q06102 whole entry, chain 3 of 4): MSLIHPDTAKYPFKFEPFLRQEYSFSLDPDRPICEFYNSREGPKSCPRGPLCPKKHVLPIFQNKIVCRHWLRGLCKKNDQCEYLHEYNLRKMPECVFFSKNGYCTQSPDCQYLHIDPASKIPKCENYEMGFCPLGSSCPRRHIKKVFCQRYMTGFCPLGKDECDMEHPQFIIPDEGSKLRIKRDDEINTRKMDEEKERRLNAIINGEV
- Sequence (P45976 whole entry, chain 4 of 4): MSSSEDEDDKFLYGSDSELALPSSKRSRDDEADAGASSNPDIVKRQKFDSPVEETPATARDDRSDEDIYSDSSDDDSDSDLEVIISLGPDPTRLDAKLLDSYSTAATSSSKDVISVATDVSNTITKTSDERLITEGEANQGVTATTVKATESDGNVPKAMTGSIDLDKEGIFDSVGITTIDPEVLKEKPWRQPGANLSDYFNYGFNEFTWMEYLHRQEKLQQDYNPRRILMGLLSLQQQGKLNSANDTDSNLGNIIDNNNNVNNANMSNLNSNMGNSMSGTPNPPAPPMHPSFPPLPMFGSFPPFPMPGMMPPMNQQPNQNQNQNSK
- protocol notes: EMSA; CPFpol (no Pap1); EMSA: 50 nM RNA, 0.25-4.0 uM protein, protein diluted in 10 mM HEPES pH 7.9, 150 mM NaCl, 0.5 mM Mg(OAc)2, plus 1x loading dye (orange G, glycerol, EDTA); 30 min on ice; native 6% acrylamide/TBE PAGE
- experimental setup: protein: recombinant;recombinant;recombinant;recombinant; tags: ;3C-SII;3C-8H; untagged in CPFpol+Cft2;; copies: 1;2;1;1; label: 5'-FAM
reported property: binding result

# example entries with known answers
{"binder": "GGGGGGGGGGGGGGG (ssRNA) [G15]", "reported property": "binding result", "result": "binds"}
{"binder": "AAAAAAAAAAAAAAA (ssRNA) [A15]", "reported property": "binding result", "result": "binds"}
{"binder": "UUUUUUUUUUUUUUU (ssRNA) [U15]", "reported property": "binding result", "result": "no binding"}
{"binder": "AAGAACGUUAUUUAUAUUUCAAAUUUUUCUUUUUU (ssRNA) [CYC1d EMSA probe]", "reported property": "binding result", "result": "binds"}

Kindly review the next binder as well.
Prompt: Look up binding result for this binder: CCCCCCCCCCCCCCC (ssRNA) [C15]
Response: no binding

This collection of values is drawn from paper PMC6436931.
